Origin of the recorded values: the supplement of paper PMC10567573

Recorded measurements of protein stability index, one per entry
B1: GFOD1 (parent)
chain: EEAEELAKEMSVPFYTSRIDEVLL

Variants of: B1
Test: protein stability index of a GFP-peptide fusion (GPS, HEK-293T) (PSI 1-6); higher = more stable;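 note: lentivirally expressed fusions sorted by FACS into six bins by GFP to DsRed ratio, PSI derived from sequencing read proportions per bin multiplied by bin number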
Conditions: c terminus: a fixed tail appended

Measured protein stability index, `A7G` : 4
